All values here come from patent US20070092467A1.

- Tested target: type-1 15-PGDH (Homo sapiens, UniProt P15428)
- Construct: made in house
- Run description: Test on type-1 15-PGDH (spectrophotometric, 340 nm, maximum reaction rate)
- Format: biochemical
- Condition info: compound at 50 μM
Below, each of the compounds is paired with its reported inhibition at 50 µM value.
Value kind: inhibition at 50 µM (%)

1. O=C(COc1ccccc1)NCc1ccccc1 = 55
2. CCCCCCOCC(=O)NCc1ccccc1 = 47
3. O=C(COc1ccc(Cl)cc1)NCc1ccccc1 = 30
4. O=C(COc1cccc(Cl)c1)NCc1ccccc1 = 50
5. O=C(COc1cccc(Cl)c1)NCc1ccco1 = 80
6. O=C(COC1CCCCC1)NCc1ccccc1 = 63

* * *

- Tested target: UniProt P42330
- Sequence (P42330 whole entry): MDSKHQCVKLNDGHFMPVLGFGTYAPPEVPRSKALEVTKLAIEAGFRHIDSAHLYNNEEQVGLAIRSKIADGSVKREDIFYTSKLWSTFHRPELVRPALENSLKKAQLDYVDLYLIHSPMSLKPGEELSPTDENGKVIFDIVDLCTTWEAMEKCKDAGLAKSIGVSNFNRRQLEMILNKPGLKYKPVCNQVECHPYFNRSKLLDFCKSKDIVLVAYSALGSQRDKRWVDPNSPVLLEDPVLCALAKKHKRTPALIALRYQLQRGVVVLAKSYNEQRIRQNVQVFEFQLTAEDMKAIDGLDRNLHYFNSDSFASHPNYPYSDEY
pIC50: −log10 of the molar value.
Value kind: pIC50

1) O=C(COc1cccc(Cl)c1)NCc1ccco1 = < 4.30

* * *

- Tested target: type-1 15-PGDH (Homo sapiens)
- Construct: made in house
- Sequence (P15428 1-266): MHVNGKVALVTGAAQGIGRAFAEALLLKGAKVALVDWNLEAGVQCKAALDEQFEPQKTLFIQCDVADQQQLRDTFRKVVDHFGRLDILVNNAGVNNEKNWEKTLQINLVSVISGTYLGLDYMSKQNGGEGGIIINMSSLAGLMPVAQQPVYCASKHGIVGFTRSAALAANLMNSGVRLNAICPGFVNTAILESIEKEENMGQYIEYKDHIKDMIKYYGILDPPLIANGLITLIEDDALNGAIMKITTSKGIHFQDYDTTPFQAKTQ
- Run description: Test on type-1 15-PGDH (spectrophotometric, 340 nm, maximum reaction rate)
- Format: biochemical
- Condition info: compound at 100 μM; 37° C., pH 7.4, PGE2 50 μM, β-NAD 1.5 mM
Below, each of the compounds is paired with its reported inhibition at 100 µM value.
Value kind: inhibition at 100 µM (%)

1) O=C(COc1ccccc1)NCc1ccccc1 [Compound 33] = 61
2) CC(=O)c1ccc(OCC(=O)Nc2ccccc2C(F)(F)F)cc1 [Compound 32] = 59
3) O=C(COc1ccc2c(c1)C(=O)c1ccccc1-2)Nc1cccc(C(F)(F)F)c1 [Compound 7] = 61
